Entries annotated with measured PET hydrolysis
assay: PET hydrolysis, aromatic products released after 48 h (umol product/mg enzyme); higher = more PET depolymerization activity; settings: substrate: cryPow; 40 °C; pH 7.5
Response field accepts a number only; no unit should be typed.

The following sequences have reported results that may help.
ADNPYERGPNPTQASIAASRGTFATAEVSVGGGNGFAAAKIYYPTDTSQGTFGAIAIVPGYTATWAAEGAWMGPWLASFGFVVIGIDTLSRNDFDTARGTQLLAALDYLTQRSSVRSRVDASRLAVMGHSMGGGGAISAALRRPSLKAAVGLAPFSPSQGTSGMRVPSMLLAGQRDGTVTPSSVRNLYNAIPATTEKAYLELTGAGHGFPTSANSVMMRKVIPWLKIFVDQDTRYQQFLCPLVDWTGITSYQSSCPLIPGGSTGTTYNLVNSSGKCADVNAASQVNGAALLLWTCHTNPNQRWTETSAKELRVYDNPKCMDAGAAQQGTRVTINSCSGGGSQKWTVNANGTVTNDLSGRCLGAAGGATTDNTPLVVASCDGSPGQQWTKQS [TEP093]    28
ANPYERGPDPTLASVEATSGTFAYASLSVSSGNGFGGGTIYYPTSTTDGTFAGIVTCPGFTNSGSSMAWFGKVLASQGFVTLVMNPKSNLDFPDARATQMLAALDWLTNSSSVKTRIDATRLGVLGQSMGGGATLKASKTRPSLKASFATAPYNSDKDWSTNTVPQFLFGMQNDTTAAVTNHALKFYNSLPATTPKIYAELRGAGHSTATSPNTSIRRYAVSFMKRNLDNDTRYSQFLCPGPTITSSSPLSAFMSNCLF [DP080]    6

Now consider a different sequence.
Input FSAPGPSAPCSNCTRGPAPTVASLKASSGPFSTAKFSVSGYLKGFGNSTVYYPTNTSGKMGAIAVIPGYLSYESSIEWWGPRLASHGFVVMTMNTNSIYDQPDSRATQLSKALDYLISQSGSSSSPIYGKVDSSRLGAIGWSMGGGGSLKLSTQRSINAIIPQAPWYLGSNTFNTIKTPALILACSADTVAPVYQHASPFYNRIPTSTPKAFLEIYGGSHFCANSGYPNEDLLGMYGIAWMKRFIDFDSRYSQFLCGPNHESDYAISEYRQNCPY [ESM017] , output reported PET hydrolysis.
33

----------
Entries annotated with measured PET hydrolysis
assay: PET hydrolysis, aromatic products released after 48 h (umol product/mg enzyme); higher = more PET depolymerization activity; conditions: substrate: aFilm; 60 °C; pH 6.5

Please report the measured PET hydrolysis for ATNPYQRGPAPTAESISAERGSFAVADSAVSADSVSGFGGGTVYYPTDTSAGKFGAVAIAPGFTANEWSLAWLGPRLASHGFVVFIIDTITTGDQPAQRGDELRAALSYLTTSSPVRDRVDPARLGVMGHSMGGGGALQAAEDDPSIRAVIPMTPYDLDSPSPKVTAPTLIIGAQDDTIAPVAYHARPFYESLTSARAKEYIELRNQSHFAPNYPNATIASASIAWLKRYIDDDQRYQPFACPAQVGSWLISDFRSAC [DP034]
< 3

Output measured PET hydrolysis for this item: ADNPYQRGPDPTPASVSANRGTFATAQISVPAGNGFGGGVIYHPTDTSQGTFGAIAVVPGYTATWAAEGAWMGHWLASFGFVVIGIDTNSRNDWDTARGTQLLAALDYLTQRSPVRDRVDANRTAVMGHSMGGGGAMHAALQRPSLKAAIGLAPFSPSQNLTTTRVPTMLLAGQSDTTTTPASILNLYNGIPAATEKAYLELTGAGHGFPTSNNPTMMRNVIPWLKIFVDSDTRYTQFLCSLSNWDGIRAYQSTCPLVPSPVPTTTSTTSTTTTISTTTTTPAPGDACSATYRTTNSWPGGYQAEVTVTAGNTAVNGWNVQWTLGSGQTVTQVWNGTLNVSGSTASVRNASYNGSLQANTSTTFGFIGGGTPPTSSLSCTSP [ESM035]
< 3
